Target: Axl (Homo sapiens)
Construct: endogenous in cells
Sequence (P30530 26-894): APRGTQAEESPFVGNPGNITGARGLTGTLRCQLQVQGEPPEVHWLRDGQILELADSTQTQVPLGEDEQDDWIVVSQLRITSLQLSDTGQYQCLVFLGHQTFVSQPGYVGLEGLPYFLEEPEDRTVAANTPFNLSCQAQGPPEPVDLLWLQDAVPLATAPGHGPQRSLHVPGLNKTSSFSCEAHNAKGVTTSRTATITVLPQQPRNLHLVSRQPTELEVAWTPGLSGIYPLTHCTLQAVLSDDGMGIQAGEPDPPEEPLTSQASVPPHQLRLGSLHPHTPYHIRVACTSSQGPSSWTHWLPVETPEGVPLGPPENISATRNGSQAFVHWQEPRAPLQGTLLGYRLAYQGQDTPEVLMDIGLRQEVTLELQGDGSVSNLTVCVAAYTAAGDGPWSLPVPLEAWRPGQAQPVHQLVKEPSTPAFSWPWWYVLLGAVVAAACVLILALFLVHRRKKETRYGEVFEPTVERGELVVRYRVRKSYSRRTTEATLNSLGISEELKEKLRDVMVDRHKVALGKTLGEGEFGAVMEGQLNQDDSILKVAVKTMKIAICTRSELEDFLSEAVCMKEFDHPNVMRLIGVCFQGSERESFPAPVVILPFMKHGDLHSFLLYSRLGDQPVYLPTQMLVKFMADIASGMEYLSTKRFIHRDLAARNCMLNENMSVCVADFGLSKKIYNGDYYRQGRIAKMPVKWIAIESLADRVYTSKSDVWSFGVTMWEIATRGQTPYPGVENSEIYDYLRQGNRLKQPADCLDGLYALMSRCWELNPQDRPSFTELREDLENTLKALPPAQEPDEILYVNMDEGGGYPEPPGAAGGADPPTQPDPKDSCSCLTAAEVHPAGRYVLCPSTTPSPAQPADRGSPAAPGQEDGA
Assay: Phospho-Akt In-Cell Western Assay (ability to inhibit Axl activity)
Conditions: Hela cells, stimulated by Axl-antibody cross-linking, phospho-Akt chemiluminescence normalized to relative cell number
Please respond with reported IC50 for every item in the list.

In [3]: df
Out[3]:
                                   molecule  quantity_kind  recorded_result
0  CC1(C)[C@H]2Cc3ccc(-n4nc(Nc5ccc(N6CCN(C7CC8CCC7C8)CC6)c(F)c5)nc4N)nc3[C@@H]1C2 (some centres unmarked)           IC50       > 20000 nM

Please state, for each entry, its recorded IC50.
1. Nc1nc(Nc2ccc(N3CCC(N4CCC[C@H]4C(=O)O)CC3)c(F)c2)nn1-c1cc(-c2ccccc2)c2c(n1)C1CCN2CC1
2. Nc1nc(Nc2ccc(N3CCN(CC(=O)O)CC3)c(F)c2)nn1-c1cc(-c2ccccc2)c2c(n1)C1CCN2CC1
3. CCSc1nc2c(c(-n3nc(Nc4ccc(OCCN5CCCC5)cc4)nc3N)n1)C1CCC2C1 (centres unmarked)

Completion:
1. < 1000 nM
2. < 1000 nM
3. < 1000 nM

Please state, for each entry, its recorded IC50.
1. CN1CCC(c2ccc(Nc3nc(N)n(-c4cc(-c5ccccc5)c5c(n4)C4CCN5CC4)n3)cc2)CC1
2. Nc1nc(Nc2ccc3c(c2)CCC(N2CCCC2)CC3)nn1-c1cc(-c2cccs2)c2c(n1)C1CCC2C1 (centres unmarked)
3. CN1CCN(c2ccc(Nc3nc(N)n(-c4ncc5c(n4)C4CCC5C4)n3)cc2)CC1 (centres unmarked)
4. CN1CCN(c2ccc(Nc3nc(N)n(-c4cc(-c5ccccc5)c5c(n4)C4CCN5CC4)n3)cc2)CC1
5. Nc1nc(Nc2ccc(N3CCN(C4CCCCC4)CC3)c(F)c2)nn1-c1cc(-c2ccccc2)c2c(n1)C1CCC2C1 (centres unmarked)
6. Nc1nc(Nc2ccc(N3CCC(N4CCCC4)CC3)c(F)c2)nn1-c1cc(-c2cccs2)c2c(n1)C1CCC2C1 (centres unmarked)
7. Nc1nc(Nc2ccc3c(c2)CCC(N2CCCC2)CC3)nn1-c1cc(-c2ccccc2)c2c(n1)C1CCN2CC1 (centres unmarked)

Completion:
["< 1000 nM", "< 1000 nM", "< 1000 nM", "< 1000 nM", "1000 to 10000 nM", "< 1000 nM", "< 1000 nM"]

Please state, for each entry, its recorded IC50.
1. Nc1nc(Nc2ccc3c(c2)CCC(N2CCC(N4CCCC4)CC2)CC3)nn1-c1cc(-c2ccccc2)c2c(n1)C1CCN2CC1 (centres unmarked)
2. Nc1nc(Nc2ccc(N3CCN(C4CCCCC4)CC3)cc2)nn1-c1ncc2c(n1)C1CCC2C1 (centres unmarked)
3. CN1CCN(c2ccc(Nc3nc(N)n(-c4nnc(-c5ccccc5)c5c4C4CCC5C4)n3)cc2)CC1 (centres unmarked)

Completion:
["< 1000 nM", "< 1000 nM", "< 1000 nM"]
